The following are reported pIC50 results, target or system ovine COX-1 (Ovis aries, UniProt P05979).
# pIC50 is unitless: minus log10 of the molar concentration; print number only

Find the measured pIC50: item CCCCCCCCCCCC1=C(O)C(=O)C=C(O)C1=O , target or system ovine COX-1 (Ovis aries, UniProt P05979).
5.19

What do you have for CCCCCCCCCCCC1=C(O)C(=N/CC)/C=C(O)C/1=N/CC ?
5.16

What do you have for CCCCCCCCCCCC1=C(O)C(=O)C=C(NCCN(C)C)C1=O ?
5.45

Continuing:
Find the measured pIC50: item CCCCCCCCCCCC1=C(O)C(=O)C=C(NC)C1=O , target or system ovine COX-1 (Ovis aries, UniProt P05979).
5.18

What do you have for CCCCCCCCCCCc1c2oc3cccnc3nc-2cc(O)c1=O ?
5.50

What do you have for CCCCCCCCCCCC1=C(O)C(=N/C)/C=C(O)C/1=N/C ?
5.12

What do you have for CCCCCCCCCCCC1=C(OC(C)=O)C(=O)C=C(OC(C)=O)C1=O ?
5.65

###

# test system: human recombinant COX-2 (Homo sapiens, UniProt P35354)
# Sequence (P35354 18-604): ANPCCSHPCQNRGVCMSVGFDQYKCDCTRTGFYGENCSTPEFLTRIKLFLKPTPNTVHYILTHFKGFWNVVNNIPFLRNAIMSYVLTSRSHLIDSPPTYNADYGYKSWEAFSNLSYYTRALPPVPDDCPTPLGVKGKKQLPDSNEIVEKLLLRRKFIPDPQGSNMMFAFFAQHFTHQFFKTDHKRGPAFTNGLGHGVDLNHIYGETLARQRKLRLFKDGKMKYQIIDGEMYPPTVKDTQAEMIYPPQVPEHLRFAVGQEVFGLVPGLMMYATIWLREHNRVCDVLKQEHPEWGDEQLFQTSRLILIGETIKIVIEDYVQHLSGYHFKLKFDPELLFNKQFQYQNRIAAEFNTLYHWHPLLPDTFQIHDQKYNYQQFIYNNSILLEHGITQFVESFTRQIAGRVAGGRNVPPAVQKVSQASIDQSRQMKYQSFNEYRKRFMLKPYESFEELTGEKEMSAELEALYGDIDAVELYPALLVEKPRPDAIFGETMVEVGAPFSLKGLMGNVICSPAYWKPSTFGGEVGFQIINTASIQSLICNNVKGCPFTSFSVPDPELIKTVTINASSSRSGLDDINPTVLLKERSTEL
# assay: In vitro COX-2 inhibition, enzyme immunoassay
# Assay type: biochemical
# settings: ratio COX-1 IC50/COX-2 IC50
experimental endpoint: COX-2 S. I. (in vitro COX-2 selectivity index, COX-1/COX-2)

Here's what some known entries look like.
Would you kindly share the measured COX-2 S. I. (in vitro COX-2 selectivity index, COX-1/COX-2) for CCCCCCCCCCCC1=C(O)C(=O)C=C(O)C1=O ?
2.15

What do you have for CCCCCCCCCCCC1=C(OC(C)=O)C(=O)C=C(OC(C)=O)C1=O ?
1.83

What do you have for CCCCCCCCCCCC1=C(O)C(=O)C=C(NCCN(C)C)C1=O ?
2.17

What do you have for CCCCCCCCCCCc1c2oc3cccnc3nc-2cc(O)c1=O ?
2.04

What do you have for CCCCCCCCCCCC1=C(O)C(=N/CC)/C=C(O)C/1=N/CC ?
3.18

What do you have for CCCCCCCCCCCC1=C(O)C(=N/C)/C=C(O)C/1=N/C ?
2.98

Kindly review the next compound as well.
Would you kindly share the measured COX-2 S. I. (in vitro COX-2 selectivity index, COX-1/COX-2) for CCCCCCCCCCCC1=C(O)C(=O)C=C(NC)C1=O ?
2.11

###

# test system: human recombinant COX-2 (Homo sapiens)
# assay: In vitro COX-2 inhibition, enzyme immunoassay
Hi! Could you tag entries with IC50 below 2000 nM as Criterion met, and those at or above as Criterion not met? Much appreciated.

Would you please look over these solved cases?
Does CCCCCCCCCCCC1=C(O)C(=O)C=C(NCCN(C)C)C1=O have IC50 strictly under 2000 nM?
Criterion met

What do you have for CCCCCCCCCCCc1c2oc3cccnc3nc-2cc(O)c1=O ?
Criterion met

What do you have for CCCCCCCCCCCC1=C(O)C(=N/CC)/C=C(O)C/1=N/CC ?
Criterion not met

What do you have for CCCCCCCCCCCC1=C(O)C(=O)C=C(NC)C1=O ?
Criterion not met

What do you have for CCCCCCCCCCCC1=C(OC(C)=O)C(=O)C=C(OC(C)=O)C1=O ?
Criterion met

What do you have for CCCCCCCCCCCC1=C(O)C(=N/C)/C=C(O)C/1=N/C ?
Criterion not met

Now look at this entry.
Does CCCCCCCCCCCC1=C(O)C(=O)C=C(O)C1=O have IC50 strictly under 2000 nM?
Criterion not met
